Recorded values, source the Immune Epitope Database (IEDB).

experimental system: HLA-B*18:01
test method notes: IEDB peptide-MHC binding, purified MHC/direct/fluorescence; filed as Kd, often an IC50 or EC50 that approximates it; bounds were set here for any values at or beyond the usual limits of such assays
assay context: source organism: Salmonella enterica subsp. enterica serovar Typhimurium
pKd: −log10 of the molar value.
measured parameter: pKd

Query: Tell me pKd of "WPVMQWLTA" when tested on HLA-B*18:01.
Response: ≤ 4.70

----------
experimental system: HLA-A*03:01
test method notes: IEDB peptide-MHC binding, purified MHC/competitive/fluorescence; filed as Kd, often an IC50 or EC50 that approximates it; bounds were set here for any values at or beyond the usual limits of such assays
assay context: source organism: Encephalitozoon cuniculi GB-M1
measured parameter: pKd
Please treat pKd as minus the base-10 logarithm of the molar concentration.

Query: Supply pKd value. Item: "CVNDGGLFY"
Response: 5.99
